Where these numbers come from: a melting point compilation (Tetko et al.; mined from patent text by program, amines drawn as free bases though some values may be those of a salt)

For each record, write down the corresponding melting point.

Query: Look up and report measured melting point for this entry: `C=Cc1c(CS)cnc(C)c1O`
Response: 130 to 140 °C

Query: Look up and report measured melting point for this entry: `Cc1cc(-c2cc(C(F)F)n3ncc(C(=O)Nc4cccc(S(N)(=O)=O)c4)c3n2)ccc1Cl`
Response: 264 °C

Query: Look up and report measured melting point for this entry: `O=[N+]([O-])c1ccc(F)cc1OCC(F)(F)F`
Response: 44 to 45 °C

Query: Look up and report measured melting point for this entry: `CC1(C)Oc2ccc([N+](=O)[O-])cc2C(n2ccccc2=O)=C1CN`
Response: 231 °C

Query: Look up and report measured melting point for this entry: `CC(C)(CNC=O)c1ccc2nc(C3CCNCC3)[nH]c2c1`
Response: 234 to 237 °C

Query: Look up and report measured melting point for this entry: `CCCCC(=O)c1ccc(NC(C)=O)cc1O`
Response: 113 °C

Query: Look up and report measured melting point for this entry: `Cc1oc(-c2ccco2)nc1COc1cccc(COc2nn(Cc3ccccc3)cc2C=O)c1`
Response: 135 to 136 °C

Query: Look up and report measured melting point for this entry: `CCOc1cc2c(c3c1OC(C)(C)C3)C(c1cccc(NC(=O)CSC)c1)=NC(C)(C)C2`
Response: 162 to 163 °C

Query: Look up and report measured melting point for this entry: `CC(C)n1nc(-c2c(-c3ccccc3)nn3ccc(OCCN4CC4)cc23)ccc1=O`
Response: 159 to 160 °C

Query: Look up and report measured melting point for this entry: O=C1CC(SCc2ccccc2)C(O)(c2ccccc2)C(SCc2ccccc2)C1 (stereo not given)
Response: 120 °C

Query: Look up and report measured melting point for this entry: `O=C(c1cocc1C(=O)N1CCCCC1)N1CCCCC1`
Response: 180 to 183 °C

Query: Look up and report measured melting point for this entry: CCC(=O)C(Oc1cc(C#N)cc(C#N)c1)C(=O)OC (stereo not given)
Response: 93 to 95 °C

Query: Look up and report measured melting point for this entry: `COC(=O)c1ccc(C(=O)N2Cc3cccn3Cc3ccccc32)cc1`
Response: 186 to 188 °C

Query: Look up and report measured melting point for this entry: `Nc1scc2c1C(=O)c1c-2ccc(Cl)c1Cl`
Response: 254 to 255 °C

Query: Look up and report measured melting point for this entry: `CC(C)NN(C[C@@H](O)[C@H](Cc1ccccc1)NC(=O)OCc1ccccc1)C(=O)OC(C)(C)C`
Response: 118 to 120 °C

Query: Look up and report measured melting point for this entry: `CC(=O)OC[C@@H]1C=C[C@H](n2cnc3c(=O)[nH]c(N)nc32)C1`
Response: 247 to 249 °C

Query: Look up and report measured melting point for this entry: `Cn1c(=O)n(CCC[C@@H](NS(=O)(=O)c2ccc(-c3ccccc3)cc2)C(=O)NO)c(=O)c2ccccc21`
Response: 202 to 203 °C

Query: Look up and report measured melting point for this entry: `COc1cc(CC#N)ccc1OCCOc1ccc(F)cc1`
Response: 126 to 128 °C

Query: Look up and report measured melting point for this entry: `CC(=O)COc1ccc(Oc2ccc(F)cc2)cc1`
Response: 56 to 57 °C

Query: Look up and report measured melting point for this entry: `COc1cc(OC)c2c(=O)[nH]c(-c3ccc(OCCO)c(-c4ccc(S(C)(=O)=O)cc4)n3)nc2c1`
Response: > 300 °C
